Exercise: state measured half-life for each of the compounds provided.
Assay: Half life in rat plasma by HPLC analysis
Type: ADME, cell-free

Previously resolved entries follow.
Give half-life for O=c1[nH]c(=O)n([C@H]2C[C@H](O)[C@@H](COP(=O)(NCc3ccccc3)OCc3ccc(F)cc3)O2)cc1F (stereo partly drawn)
> 24 h

Specify half-life for Cc1ccccc1COP(=O)(NCc1ccccc1)OC[C@H]1O[C@@H](n2cc(F)c(=O)[nH]c2=O)C[C@@H]1O (stereo partly drawn) and stop.
> 24 h

Respond only with half-life recorded for O=c1[nH]c(=O)n([C@H]2C[C@H](O)[C@@H](COP(=O)(NCc3ccccc3)OCc3ccc(Cl)cc3)O2)cc1F (stereo partly drawn)
> 24 h

State its half-life: O=c1[nH]c(=O)n([C@H]2C[C@H](O)[C@@H](COP(=O)(NCc3ccccc3)OCc3cccc(F)c3)O2)cc1F (stereo partly drawn)
> 24 h

Required: half-life, one value per compound below.
1. Cc1ccc(COP(=O)(NCc2ccccc2)OC[C@H]2O[C@@H](n3cc(F)c(=O)[nH]c3=O)C[C@@H]2O)cc1 (stereo partly drawn)
2. Cc1ccccc1CO[P@](=O)(N[C@@H](C)C(=O)OC(C)C)OC[C@H]1O[C@@H](n2cc(F)c(=O)[nH]c2=O)C[C@@H]1O
3. COc1ccccc1COP(=O)(NCc1ccccc1)OC[C@H]1O[C@@H](n2cc(F)c(=O)[nH]c2=O)C[C@@H]1O (stereo partly drawn)
4. Cc1cccc(COP(=O)(NCc2ccccc2)OC[C@H]2O[C@@H](n3cc(F)c(=O)[nH]c3=O)C[C@@H]2O)c1 (stereo partly drawn)
5. COc1cccc(COP(=O)(NCc2ccccc2)OC[C@H]2O[C@@H](n3cc(F)c(=O)[nH]c3=O)C[C@@H]2O)c1 (stereo partly drawn)
6. O=c1[nH]c(=O)n([C@H]2C[C@H](O)[C@@H](COP(=O)(NCc3ccccc3)OCc3ccccc3Cl)O2)cc1F (stereo partly drawn)

1: > 24 h; 2: < 0.083 h; 3: 3.4 h; 4: > 24 h; 5: > 24 h; 6: > 24 h

Please state, for each entry, its recorded half-life.
1. O=c1[nH]c(=O)n([C@H]2C[C@H](O)[C@@H](COP(=O)(NCc3ccccc3)OCc3ccccc3F)O2)cc1F (stereo partly drawn)
2. O=c1[nH]c(=O)n([C@H]2C[C@H](O)[C@@H](COP(=O)(NCc3ccccc3)OCc3cccc(Cl)c3)O2)cc1F (stereo partly drawn)

1. > 24 h
2. > 24 h

For the compound Cc1ccccc1COP(=O)(N[C@@H](C)C(=O)OC(C)C)OC[C@H]1O[C@@H](n2cc(F)c(=O)[nH]c2=O)C[C@@H]1O (stereo partly drawn) , give its measured half-life value.
< 0.083 h
